Assayed target: UniProtKB P34969
Sequence (P34969 whole entry): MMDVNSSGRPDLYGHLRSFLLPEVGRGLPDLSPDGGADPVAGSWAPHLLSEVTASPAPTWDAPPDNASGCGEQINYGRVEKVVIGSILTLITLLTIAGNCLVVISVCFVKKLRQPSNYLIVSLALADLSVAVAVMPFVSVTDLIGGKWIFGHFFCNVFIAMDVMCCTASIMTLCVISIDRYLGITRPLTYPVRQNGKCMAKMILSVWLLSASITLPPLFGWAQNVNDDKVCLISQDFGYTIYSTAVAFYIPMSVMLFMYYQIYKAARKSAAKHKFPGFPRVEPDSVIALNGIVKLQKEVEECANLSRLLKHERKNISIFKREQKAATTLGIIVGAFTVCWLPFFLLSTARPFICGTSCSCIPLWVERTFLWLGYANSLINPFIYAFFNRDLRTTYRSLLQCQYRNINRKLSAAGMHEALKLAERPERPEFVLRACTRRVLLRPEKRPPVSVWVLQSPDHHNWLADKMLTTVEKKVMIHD
pKi: −log10 of the molar value.
Value type: pKi

Solved cases below.
In [3]: df
Out[3]:
                                   compound    assayed_target  value_type  measured
0  CCN(CCN1CCC(c2noc3ccc(C)cc23)CC1)S(=O)(=O)CCO  UniProtKB P34969         pKi      7.87
1  CCN(CCN1CCC(c2noc3cc(F)ccc23)CC1)C(=O)C(O)CN (stereo not shown)  UniProtKB P34969         pKi      8.12

(P) CC(O)C(=O)N(CCN1CCC(c2noc3cc(F)ccc23)CC1)CC1CC1 (stereo not shown)
(Q) CCN(CCN1CCN(c2noc3ccccc23)CC1)C(=O)C(C)O (stereo not shown)
I would appreciate it if you could say which entry, P or Q , has the lower pKi value. Choose, then provide that item's label.
Q

meta.source: patent US11339151B2
